All figures here come from ChEMBL document CHEMBL1201862.

- System: H4
- ASSAY_TEXT: Luminescence Cell-Based Dose Response HTS to Identify Activators of 5'UTR Stem-Loop Driven Prion Protein mRNA Translation in H4 Neuroglioblastoma Cells. [Related pubchem assays: 1829 (Project Summary), 1814 (Primary HTS)]
- Type: functional
- RECORDED_CONDITIONS: Homo sapiens
Activity calls are given as the source filed them. No stated cut-off is given here; in the data, actives have a measured EC50 and inactives only a lower limit.
MEASURED_METRIC: EC50

The cases that follow already have their EC50 on record.
O=C(NC(=O)c1csnn1)Nc1ccccc1Cl; > 60 µM (not active)
Cc1cccc(N2C(=O)NC(=O)/C(=C\c3c(-c4ccccc4)[nH]c4ccccc34)C2=O)c1; > 120 µM (not active)
O=c1c(Cl)c(NCCCO)cnn1-c1nc2ccccc2[nH]1; 88 µM (active)
COc1cc(OC)cc(C(=O)NCC(=O)Nc2ccc(-c3ccccc3)cc2)c1; 9.12 µM (active)

Now turn to the next molecule.
Task: What EC50 appears in the records for this molecule with H4? `Cc1cc(C)c2nc(-n3nc(C)cc3N)cc(C)c2c1`
Result: 1.71 µM (active)
